All values here come from the supplement of paper PMC13380429.

- Tested on: Calu-3
- Assay remarks: cell viability relative to DMSO; higher = less toxic
- Stated conditions: 72 h; 1 nM
Listed compounds paired with reported cell viability
Assay metric: cell viability (%)

INSERT INTO assay_data (compound, measure_unit, endpoint_result) VALUES
  ('CN1CC[C@@]2(C)c3cc(O)ccc3N(C)[C@@H]12 [eseroline-(-)]', '%', 101),
  ('O=C(C1CCCCC1)N1CC(=O)N2CCc3ccccc3C2C1 (stereo unspecified)', '%', 102),
  ('COc1ccc2[nH]c([S+]([O-])Cc3ncc(C)c(OC)c3C)nc2c1 (stereo unspecified) [omeprazole-magnesium]', '%', 93.3),
  ('CCN1CCN(Cc2ccc(-c3cc4c(N[C@H](C)c5ccccc5)ncnc4[nH]3)cc2)CC1', '%', 100),
  ('CC(C)c1noc(N2CCC(COc3ccc(-c4ccc(S(C)(=O)=O)cc4)nc3)CC2)n1', '%', 96.4),
  ('CC[C@H](C)[C@@H]1NC(=O)[C@H](Cc2ccc(OC)cc2)NC(=O)CCCSC[C@@H](C(=O)N2CCC[C@H]2C(=O)N[C@@H](CC(C)C)C(=O)NCC(N)=O)NC(=O)[C@H](CC(N)=O)NC(=O)[C@H](CCC(N)=O)NC1=O', '%', 103),
  ('Cc1cn([C@H]2O[C@@H](CO)[C@H](O)[C@H]2F)c(=O)[nH]c1=O', '%', 90.3),
  ('CCN(CC)CCNC(=O)c1cc(Br)c(N)cc1OC [bromopride]', '%', 102),
  ('NCCCC[C@H](NC(=O)[C@@H]1CCCN1C(=O)[C@@H]1CSSC[C@H](NC(=O)CNC(=O)CNC(=O)CN)C(=O)N[C@@H](Cc2ccc(O)cc2)C(=O)N[C@@H](Cc2ccccc2)C(=O)N[C@@H](CCC(N)=O)C(=O)N[C@@H](CC(N)=O)C(=O)N1)C(=O)NCC(N)=O', '%', 93.9),
  ('CCc1cc2c(c(CC)n1)CCC(=O)N2Cc1ccc(-c2ccccc2-c2nnn[nH]2)cc1', '%', 111),
  ('CCOC(=O)[C@@H](C)Oc1cccc2c(=O)n(CC(=O)Nc3ccc4c(c3)OCCO4)ccc12', '%', 92.5);
